molecular target: Adrenergic β2 (H292 cells) (Homo sapiens); construct: endogenous in cells; host or cells: H292 cells; test: Assay for Adrenergic β2 Mediated cAMP Production (concentration response, AlphaScreen cAMP detection); type: cell-based; settings: fraction relative to the maximum activity determined for formoterol
Sequence (P07550 whole entry): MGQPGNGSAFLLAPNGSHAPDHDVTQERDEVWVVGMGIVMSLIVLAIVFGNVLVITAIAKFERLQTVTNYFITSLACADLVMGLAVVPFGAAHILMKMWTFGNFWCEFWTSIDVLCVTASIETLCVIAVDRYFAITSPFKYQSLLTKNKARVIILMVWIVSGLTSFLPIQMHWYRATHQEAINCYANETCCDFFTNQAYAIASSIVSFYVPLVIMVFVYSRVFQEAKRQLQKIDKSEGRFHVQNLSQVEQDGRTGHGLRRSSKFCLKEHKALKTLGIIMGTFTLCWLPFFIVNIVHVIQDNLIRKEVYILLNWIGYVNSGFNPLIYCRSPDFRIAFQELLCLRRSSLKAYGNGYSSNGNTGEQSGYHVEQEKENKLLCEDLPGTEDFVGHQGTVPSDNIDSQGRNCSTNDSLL
Structures can show the parent of a compound that is named as a salt.
ASSAY ENDPOINT: β2 Intrinsic activity

Query β2 Intrinsic activity on Adrenergic β2 (H292 cells) (Homo sapiens) for CC(C)c1nc(C(=O)N2CCOC3(CCN(Cc4ccc(Cl)c(CCNC[C@H](O)c5ccc(O)c6[nH]c(=O)sc56)c4)CC3)C2)cs1 [Example 75, ditrifluoroacetate]
0.8

Query β2 Intrinsic activity on Adrenergic β2 (H292 cells) (Homo sapiens) for CC(C)c1cc(C(=O)N2CCOC3(CCN(Cc4cccc(CCNC[C@H](O)c5ccc(O)c6[nH]c(=O)sc56)c4)CC3)C2)cs1 [Example 82, ditrifluoroacetate]
0.9

Query β2 Intrinsic activity on Adrenergic β2 (H292 cells) (Homo sapiens) for CC(C)c1nc(C(=O)N2CCOC3(CCN(CCCCCCCCCNC[C@H](O)c4ccc(O)c5[nH]c(=O)sc45)CC3)C2)cs1 [Example 109, formate]
0.9

Query β2 Intrinsic activity on Adrenergic β2 (H292 cells) (Homo sapiens) for Cc1nc(C(=O)N2CCOC3(CCN(CCc4ccc(CCNC[C@H](O)c5ccc(O)c6[nH]c(=O)sc56)s4)CC3)C2)cs1 [Example 4, ditrifluoroacetate]
0.9

Query β2 Intrinsic activity on Adrenergic β2 (H292 cells) (Homo sapiens) for CCC(CC)c1nc(C(=O)N2CCOC3(CCN(Cc4cccc(CCNC[C@H](O)c5ccc(O)c6[nH]c(=O)sc56)c4)CC3)C2)cs1 [Example 265, ditrifluoroacetate]
1

Query β2 Intrinsic activity on Adrenergic β2 (H292 cells) (Homo sapiens) for CCc1cc(C(=O)N2CC(C)(C)OC3(CCN(Cc4cccc(CCNC[C@H](O)c5ccc(O)c6[nH]c(=O)ccc56)c4)CC3)C2)cs1 [Example 272, ditrifluoroacetate]
1

----------
Target: Adrenergic β2 (H292 cells) (Homo sapiens)
Construct: endogenous in cells; host or cells: H292 cells
Test: Assay for Adrenergic β2 Mediated cAMP Production (concentration response, AlphaScreen cAMP detection)
Type: cell-based
Conditions: fraction relative to the maximum activity determined for formoterol
Protocol: Assay for Adrenergic β2 Mediated Camp Production H292 cells are grown in 225 cm2 flasks incubator at 37° C., 5% CO2 in RPMI medium containing 10% (v/v) FBS (foetal bovine serum) and 2 mM L-glutamine. […] The concentration of cAMP (cyclic adenosine monophosphate) in the cell lysate is determined using AlphaScreen™ methodology. […] Intrinsic Activity is expressed as a fraction relative to the maximum activity determined for formoterol in each experiment.
ASSAY ENDPOINT: β2 Intrinsic activity

Query β2 Intrinsic activity on Adrenergic β2 (H292 cells) (Homo sapiens) for CC(C)c1nc(C(=O)N2CCOC3(CCN(Cc4cccc(SCCNC[C@H](O)c5ccc(O)c6[nH]c(=O)sc56)c4)CC3)C2)cs1 [Example 65, ditrifluoroacetate]
0.9

[A] CC(C)c1nc(C(=O)N2CCOC3(CCN(Cc4ccc(F)c(CCNC[C@H](O)c5ccc(O)c6[nH]c(=O)ccc56)c4F)CC3)C2)cs1 [Example 46, ditrifluoroacetate]
[B] O=C(c1ccc2occc2c1)N1CCOC2(CCN(Cc3cccc(CCNC[C@H](O)c4ccc(O)c5[nH]c(=O)sc45)c3)CC2)C1
Given the listed items, does A or B have the lesser reported β2 Intrinsic activity? // return label of chosen record
B
(B: 0.7, A: 1)

----------
target: human muscarinic acetylcholine M3 receptor (M3-ACh) (Homo sapiens, UniProt P20309); construct: expressed in transfected cells; host or cells: CHO-K1 (Chinese Hamster Ovary) cell membranes; assay: Muscarinic 3 Receptor Binding Assay ([3H]NMS competition, SPA); conditions: [3H]NMS 0.1 nM, CHO-K1 cell membranes, 16 hours at room temperature; read-out: M3 pIC50 (converted)
Sequence (P20309 whole entry): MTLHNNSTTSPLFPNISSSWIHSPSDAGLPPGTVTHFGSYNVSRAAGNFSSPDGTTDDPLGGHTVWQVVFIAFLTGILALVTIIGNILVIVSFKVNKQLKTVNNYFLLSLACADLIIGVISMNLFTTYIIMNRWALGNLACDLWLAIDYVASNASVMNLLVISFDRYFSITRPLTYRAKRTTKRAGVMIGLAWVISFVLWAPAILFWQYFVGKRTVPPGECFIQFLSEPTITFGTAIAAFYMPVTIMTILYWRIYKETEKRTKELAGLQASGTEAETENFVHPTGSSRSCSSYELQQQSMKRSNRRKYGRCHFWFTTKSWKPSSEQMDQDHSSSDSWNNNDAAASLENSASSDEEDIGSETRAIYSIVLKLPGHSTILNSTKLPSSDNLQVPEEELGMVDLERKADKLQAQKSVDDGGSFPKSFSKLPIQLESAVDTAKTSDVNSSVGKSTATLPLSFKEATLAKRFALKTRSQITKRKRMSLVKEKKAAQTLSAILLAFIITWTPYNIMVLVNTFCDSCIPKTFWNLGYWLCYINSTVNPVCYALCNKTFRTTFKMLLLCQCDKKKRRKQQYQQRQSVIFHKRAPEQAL
Where a name gives a salt, the structure may show the parent alone.
ASSAY ENDPOINT: IC50 (nM)

Recorded results for 2 compounds are shown here.
# query: IC50 of entry Cc1nc(C(=O)N2CCOC3(CCN(CCCCCCCCCNC[C@H](O)c4ccc(O)c5[nH]c(=O)sc45)CC3)C2)c(C)s1
6.31

# query: IC50 of entry CC(C)c1nc(C(=O)N2CCOC3(CCN(Cc4cc(CCNC[C@H](O)c5ccc(O)c6[nH]c(=O)sc56)ccc4Cl)CC3)C2)cs1 [Example 61, ditrifluoroacetate]
5.01

[I] Cc1csc(C(=O)N2CCOC3(CCN(CCCCCCCCCNC[C@H](O)c4ccc(O)c5[nH]c(=O)sc45)CC3)C2)c1
[II] CC(C)c1nc(C(=O)N2CCOC3(CCN(CCCSCCCCNC[C@H](O)c4ccc(O)c5[nH]c(=O)sc45)CC3)C2)cs1 [Example 281, formate]
[III] Cc1ccc(C(=O)N2CCOC3(CCN(CCOc4ccc(CNC[C@H](O)c5ccc(O)c6[nH]c(=O)sc56)cc4)CC3)C2)s1 [Example 110, formate]
// ranking: key=IC50, reverse=True # answer = labels listed in requested order
III, II, I
(III: 20 nM, II: 1.58 nM, I: 0.794 nM)

----------
molecular target: human muscarinic acetylcholine M3 receptor (M3-ACh) (Homo sapiens); construct: expressed in transfected cells; host or cells: CHO-K1 (Chinese Hamster Ovary) cell membranes; experiment: Muscarinic 3 Receptor Binding Assay, % inhibition specific binding at 1 μM; settings: 1 μM compound, % inhibition specific [3H]-NMS binding
ASSAY ENDPOINT: inhibition at 1 µM (%)

# query: inhibition at 1 µM of entry O=C(c1cccc2cc[nH]c12)N1CCOC2(CCN(Cc3cc(F)cc(CCNC[C@H](O)c4ccc(O)c5[nH]c(=O)sc45)c3)CC2)C1
91

[I] Cc1noc(C)c1CC(=O)N1CCOC2(CCN(Cc3cc(F)cc(CCNC[C@H](O)c4ccc(O)c5[nH]c(=O)sc45)c3)CC2)C1
[II] O=C(c1ccc(Cl)s1)N1CCOC2(CCN(CCCCCCCCCNC[C@H](O)c3ccc(O)c4[nH]c(=O)sc34)CC2)C1
Of I and II , whose reported inhibition at 1 µM is the larger number? // return label of chosen record
II
(II: 99%, I: 8%)

----------
molecular target: human muscarinic acetylcholine M3 receptor (M3-ACh) (Homo sapiens); construct: expressed in transfected cells; host or cells: CHO-K1 (Chinese Hamster Ovary) cell membranes; assay: Muscarinic 3 Receptor Binding Assay ([3H]NMS competition, SPA); details: [3H]NMS 0.1 nM, CHO-K1 cell membranes, 16 hours at room temperature; read-out: M3 pIC50 (converted)
Structures can show the parent of a compound that is named as a salt.
ASSAY ENDPOINT: IC50 (nM)

Recorded results for 5 molecules are shown here.
Query IC50 on human muscarinic acetylcholine M3 receptor (M3-ACh) (Homo sapiens) for CC(C)c1nc(C(=O)N2CCOC3(CCN(CCC[S+]([O-])CCCCNC[C@H](O)c4ccc(O)c5[nH]c(=O)sc45)CC3)C2)cs1 (stereo partly shown) [Example 282, formate]
20

Query IC50 on human muscarinic acetylcholine M3 receptor (M3-ACh) (Homo sapiens) for CCc1cc(C(=O)N2CCOC3(CCN(Cc4cc(CCNC[C@H](O)c5ccc(O)c6[nH]c(=O)sc56)ccc4F)CC3)C2)cs1 [Example 100, ditrifluoroacetate]
1.58

Query IC50 on human muscarinic acetylcholine M3 receptor (M3-ACh) (Homo sapiens) for Cc1cc(C(=O)N2CCOC3(CCN(CCCCCCCCCNC[C@H](O)c4ccc(O)c5[nH]c(=O)sc45)CC3)C2)c(C)s1
7.94

Query IC50 on human muscarinic acetylcholine M3 receptor (M3-ACh) (Homo sapiens) for CCC(CC)c1nc(C(=O)N2CCOC3(CCN(Cc4cccc(CCNC[C@H](O)c5ccc(O)c6[nH]c(=O)ccc56)c4)CC3)C2)cs1 [Example 274, ditrifluoroacetate]
2.51

Query IC50 on human muscarinic acetylcholine M3 receptor (M3-ACh) (Homo sapiens) for Cc1nc(C(=O)N2CCOC3(CCN(Cc4cc(F)cc(CCNC[C@H](O)c5ccc(O)c6[nH]c(=O)sc56)c4)CC3)C2)cs1 [Example 19, ditrifluoroacetate]
1.58

[a] CCc1cc(C(=O)N2CCOC3(CCN(Cc4cccc(CCNC[C@H](O)c5ccc(O)c6[nH]c(=O)sc56)c4F)CC3)C2)cs1 [Example 91, ditrifluoroacetate]
[b] Cc1nc(C(=O)N2CCOC3(CCN(CCCCCCCCCNC[C@H](O)c4ccc(O)c5[nH]c(=O)sc45)CC3)C2)cs1 [Example 2, ditrifluoroacetate]
[c] O=C(c1csc(C2CCC2)n1)N1CCOC2(CCN(Cc3cc(F)cc(CCNC[C@H](O)c4ccc(O)c5[nH]c(=O)sc45)c3)CC2)C1 [Example 58, ditrifluoroacetate]
[d] Cc1ccc(C(=O)N2CCOC3(CCN(Cc4cc(F)cc(CCNC[C@H](O)c5ccc(O)c6[nH]c(=O)sc56)c4)CC3)C2)s1
[e] CC(C)c1nc(C(=O)N2CCOC3(CCN(Cc4ccc(F)c(CCNC[C@H](O)c5ccc(O)c6[nH]c(=O)sc56)c4)CC3)C2)cs1 [Example 47, ditrifluoroacetate]
List the 5 entries from lowest IC50 to highest IC50 value. # answer = labels listed in requested order
b, e, a, c, d

Reference for the values: patent US8148373B2
